# System: CRC 119
# Experiment Summary: In vitro screening, ponatinib IC50 (cell viability)
# Format: cell-based
# Condition Description: Homo sapiens, 72 hours after drug addition
pIC50: −log10 of the molar value.
Measured Endpoint: pIC50

> print(dat)
                                   compound  measured.endpoint  result.value
1  Cc1ccc(C(=O)Nc2ccc(CN3CCN(C)CC3)c(C(F)(F)F)c2)cc1C#Cc1cnc2cccnn12 [ponatinib]              pIC50          5.96

* * *

# Test system: organoid B
# Experiment Summary: Organoid cell viability / IC50
# Type: cell-based
Listed here: items and their measured IC50.
Measured Endpoint: IC50 (µM)

> print(dat)
                                   compound  measured.endpoint  result.units  result.value
1    O=c1[nH]cc(F)c(=O)[nH]1 [fluorouracil]               IC50            µM         0.037
2  CCc1c2c(nc3ccc(O)cc13)-c1cc3c(c(=O)n1C2)COC(=O)[C@]3(O)CC [SN38, 7-ethyl-10-hydroxycamptothecin]               IC50            µM          43.9
3  O=C1[O][Pt]2([NH][C@@H]3CCCC[C@H]3[NH]2)[O]C1=O [oxaliplatin]               IC50            µM          7.01
